TARGET UNDER TEST: 5-hydroxytryptamine receptor 1A (Homo sapiens, UniProt P08908)
Sequence (P08908 whole entry): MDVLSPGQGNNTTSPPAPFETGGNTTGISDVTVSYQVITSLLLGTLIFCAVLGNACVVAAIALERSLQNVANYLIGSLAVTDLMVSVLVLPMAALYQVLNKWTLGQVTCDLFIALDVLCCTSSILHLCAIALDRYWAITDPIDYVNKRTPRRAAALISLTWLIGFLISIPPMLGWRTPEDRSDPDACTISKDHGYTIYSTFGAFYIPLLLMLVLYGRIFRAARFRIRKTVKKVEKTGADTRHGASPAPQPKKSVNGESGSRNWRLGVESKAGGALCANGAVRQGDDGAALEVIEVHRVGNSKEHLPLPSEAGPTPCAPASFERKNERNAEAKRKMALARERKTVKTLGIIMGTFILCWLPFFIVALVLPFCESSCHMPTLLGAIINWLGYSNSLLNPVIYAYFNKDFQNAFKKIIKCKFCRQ
ASSAY DETAILS: Binding affinity on human cloned 5-hydroxytryptamine 1A receptor transfected in human cell lines(He La)
READOUT: pKi
A value of pKi is the negative decimal logarithm of a concentration given in moles per litre.

Example entries and their recorded answers appear below.
>>> df
                                   compound                         target_under_test  measured
0   COc1cccc2c(CCCN3CCN(c4ccccn4)CC3)cccc12  5-hydroxytryptamine receptor 1A (Homo sapiens, UniProt P08908)      8.52
1  COc1cccc(C2CCC(N3CCN(c4ccccn4)CC3)CC2)c1 (trans isomer)  5-hydroxytryptamine receptor 1A (Homo sapiens, UniProt P08908)      9.70
2  COc1cccc(C2CCC(NCCOc3ccccn3)CC2)c1 (stereo in doubt)  5-hydroxytryptamine receptor 1A (Homo sapiens, UniProt P08908)      8.42
3  COc1cccc2c1CCCC2CCCNCCOc1ccccn1 (stereo unspecified)  5-hydroxytryptamine receptor 1A (Homo sapiens, UniProt P08908)      9.64
4         COc1cccc2c(CCCNCCOc3ccccn3)cccc12  5-hydroxytryptamine receptor 1A (Homo sapiens, UniProt P08908)      9.07

Switching to the query record.
Which pKi is reported with 5-hydroxytryptamine receptor 1A (Homo sapiens, UniProt P08908) for this entry: COc1cccc(C2CCC(N3CCN(c4ccccc4OC)CC3)CC2)c1 (stereo in doubt; trans) ?
9.68

* * *

TARGET UNDER TEST: Adrenergic receptor alpha-1 (Rattus norvegicus, UniProt P15823+P23944+P43140)
ASSAY DETAILS: Binding affinity towards alpha-1 adrenergic receptor in rat cortical membranes
Assay type: cell membranes
READOUT: Ki (nM)
A number alone suffices; assume nM.

>>> print(df.to_string())
                                   compound                         target_under_test  readout  unit_label  measured
0  COc1ccc(C2CCC(N3CCN(c4ccccn4)CC3)CC2)cc1 (trans isomer)  Adrenergic receptor alpha-1 (Rattus norvegicus, UniProt P15823+P23944+P43140)       Ki          nM       847

Would you kindly share the measured Ki for COc1cccc(C2CCC(N3CCN(c4ccccc4)CC3)CC2)c1 (stereo in doubt; trans) ?
730

Now the same for COc1ccc2c(c1)CC(CCN1CCN(c3ccccn3)CC1)CC2 (stereo not given)
117

* * *

ASSAY DETAILS: Selectivity expressed as a ratio of affinity against Alpha 1b-Adrenoceptor to that of 5-HT1A receptor
The following compounds are listed with their measured Selectivity values.
Please reply with the value in numeric form only.

Example compounds with recorded Selectivity:
>>> print(df.to_string())
                                   compound      readout  measured
0  COc1cccc(C2CCC(NCCOc3ccccn3)CC2)c1 (stereo in doubt)  Selectivity        88
1  COc1cccc(C2CCC(N3CCN(c4ccccc4OC)CC3)CC2)c1 (stereo in doubt; trans)  Selectivity       206
2  COc1cccc(C2CCC(N3CCN(c4ccccn4)CC3)CC2)c1 (trans isomer)  Selectivity       265
3         COc1cccc2c(CCCNCCOc3ccccn3)cccc12  Selectivity       314
4  COc1cccc2c1CCCC2CCCNCCOc1ccccn1 (configuration not stated)  Selectivity       115
5  COc1cccc2c1CCCC2CCCN1CCN(c2ccccn2)CC1 (configuration not stated)  Selectivity        98

Turning now to a further record.
I have this compound here, COc1cccc2c(CCCN3CCN(c4ccccn4)CC3)cccc12 , and I need its recorded Selectivity.
1
